# PROCEDURE_DETAILS: solvent given as SMILES
# MEASUREMENT_CONTEXT: in CC#N
Recorded emission maximum, one value per entry.
Respond with the bare value in nm.

A selection of reference data follows.
C#CCN1C(=O)/C(=C/c2cc(OC(C)C)ccc2OC(C)C)N=C1C ... 508
Oc1ccc2ccccc2c1-c1nc(-c2ccccc2)c2ccccn12 ... 435
Cn1ccc(=O)n(C)c1=O ... 308
CCC1=C(C)C2=C(c3cc(C4=C5C(C)=C(CC)C(C)=[N+]5[B-](F)(F)n5c(C)c(CC)c(C)c54)cc(C4=C5C(C)=C(CC)C(C)=[N+]5[B-](F)(F)n5c(C)c(CC)c(C)c54)c3)c3c(C)c(CC)c(C)n3[B-](F)(F)[N+]2=C1C ... 556
CCc1ccc(/C=N/c2cc(C(C)C)c(O)cc2C)cc1 ... 421
CN(C)c1cc(-c2ccc(C#Cc3ccccc3)cc2)cc2ccccc12 ... 500.89
CN1/C(=C\C=C\C2=C3C=CC(c4ccccc4)=[N+]3[B-](F)(F)n3c2ccc3-c2ccccc2)Sc2ccccc21 ... 727
C[Si](C)(C)[Si](C)(C)c1cccc2cc3ccccc3cc12 ... 411

So what's the measured emission maximum for this one? Fc1nc(F)c(F)c(C#Cc2cc3c(cc2C#Cc2c(F)c(F)nc(F)c2F)OC2(CCCCC2)O3)c1F
460

Same for O=Cc1ccc(-c2ccc(C3=CCCCC3)s2)s1
485

Same for O=C1Nc2ccccc2/C1=C/C(=O)c1ccc(O)cc1
401

Same for CCCCCCCCCCCCCCCCCCN1C(=O)c2cccc3c(OCCN(C)C)ccc(c23)C1=O
514

Same for CCCSc1ccc2n1[B-](F)(F)[N+]1=C(SC#N)C=CC1=C2c1ccccc1
567
